These entries and their values trace back to ChEMBL document CHEMBL4118151.

assay: Selectivity index, ratio of CC50 for MDCK cells to IC50 for amantadine/oseltamivir-susceptible Influenza A virus (A/mallard/Netherlands/12/00(H7N3)); type: toxicity; conditions: dog, read-out: Ratio CC50/IC50
recorded.endpoint: selectivity ratio

structure=C[C@@H]1CC[C@@H]2[C@@H](C1)OC(C)(C)C[C@@]2(C)O recorded_endpoint="selectivity ratio" quantitative_result=2

====

assay: Selectivity index, ratio of CC50 for MDCK cells to IC50 for amantadine/oseltamivir-susceptible Influenza A virus (A/Aichi/2/68(H3N2)); type: toxicity; conditions: dog, read-out: Ratio CC50/IC50
recorded.endpoint: selectivity ratio

structure=C[C@@H]1CC[C@@H]2[C@@H](C1)OC(C)(C)C[C@@]2(C)O recorded_endpoint="selectivity ratio" result=1

====

test: Selectivity index, ratio of CC50 for MDCK cells to IC50 for amantadine/oseltamivir-susceptible Influenza A virus (A/Singapore/1/57(H2N2)); format: toxicity; settings: dog, read-out: Ratio CC50/IC50
recorded.endpoint: selectivity ratio

structure=C[C@@H]1CC[C@@H]2[C@@H](C1)OC(C)(C)C[C@@]2(C)O quantitative_result=1570

====

assay: Cytotoxicity against MDCK cells after 48 hrs by MTT assay; format: cell-based, Canis lupus familiaris; details: dog
recorded.endpoint: CC50 at 48 h (µM)

compound=C[C@@H]1CC[C@@H]2[C@H](C1)OC1(CCCCC1)C[C@@]2(C)O limit_qualifier== quantitative_result=627
compound=C[C@@H]1CC[C@@H]2[C@@H](C1)O[C@@H](C1CCCCC1)C[C@@]2(C)O limit_qualifier== quantitative_result=24.2
compound="C[C@@H]1CC[C@@H]2[C@H](C1)OC(C)(C)CC2(C)O (stereo partly drawn)" limit_qualifier== quantitative_result=72.2
compound="CC(N)C12CC3CC(CC(C3)C1)C2 (stereo not drawn) [RIMANTADINE]" limit_qualifier== quantitative_result=319
compound=C[C@@H]1CC[C@@H]2[C@H](C1)OC1(CCCC1)C[C@@]2(C)O limit_qualifier== quantitative_result=810
compound=C[C@@H]1CC[C@@H]2[C@H](C1)OC1(CCCCCC1)C[C@@]2(C)O limit_qualifier== quantitative_result=210
compound=C[C@@H]1CC[C@@H]2[C@@H](C1)OC(C)(C)C[C@@]2(C)O limit_qualifier=> quantitative_result=1420
compound=C[C@@H]1CC[C@@H]2[C@H](C1)OC1(CCCCCCC1)C[C@@]2(C)O limit_qualifier== quantitative_result=379
compound=CCC[C@H]1C[C@@](C)(O)[C@@H]2CC[C@@H](C)C[C@H]2O1 limit_qualifier=> quantitative_result=1330
compound=CCCC1(CCC)C[C@@](C)(O)[C@@H]2CC[C@@H](C)C[C@@H]2O1 limit_qualifier== quantitative_result=131
compound=C[C@@H]1CC[C@@H]2[C@@H](C1)OC(C)(C)C[C@]2(C)O limit_qualifier== quantitative_result=816
compound="NC(=O)c1ncn([C@@H]2O[C@H](CO)[C@@H](O)[C@H]2O)n1 [RIBAVIRIN]" limit_qualifier=> quantitative_result=2130
compound=CCC1(CC)C[C@@](C)(O)[C@@H]2CC[C@@H](C)C[C@@H]2O1 limit_qualifier== quantitative_result=188
